Ref: the supplement of paper PMC10307832

The following compounds are shown together with reported relative viability values.
test system: NCI-H322M; test: relative viability (nuclei count vs DMSO), 5 days (fraction); higher = more cells survive; details: first compound 0.005 µM

| COMPOUND | METRIC_NAME | MEASURED |
| --- | --- | --- |
| CC1(C)CCC(c2ccc(Cl)cc2)=C(CN2CCN(c3ccc(C(=O)NS(=O)(=O)c4ccc(N[C@H](CCN5CCOCC5)CSc5ccccc5)c(S(=O)(=O)C(F)(F)F)c4)cc3)CC2)C1 [Navitoclax] + CS(=O)(=O)CCNCc1ccc(-c2ccc3ncnc(Nc4ccc(OCc5cccc(F)c5)c(Cl)c4)c3c2)o1 [Lapatinib] (partner 2 µM) | relative viability | 0.672 |

Turning now to a further record.
Check NCI-H322M data and give relative viability for CC1(C)CCC(c2ccc(Cl)cc2)=C(CN2CCN(c3ccc(C(=O)NS(=O)(=O)c4ccc(N[C@H](CCN5CCOCC5)CSc5ccccc5)c(S(=O)(=O)C(F)(F)F)c4)cc3)CC2)C1 [Navitoclax] + CC(C)C[C@H](NC(=O)[C@H](Cc1ccccc1)NC(=O)c1cnccn1)B(O)O [Bortezomib] (partner 0.002 µM) .
1.21

* * *

system: NCI-H1734; test: relative viability (nuclei count vs DMSO), 5 days (fraction); higher = more cells survive; conditions: first compound 0.5 µM
METRIC_NAME: relative viability

Answered examples (2):
| MOLECULE | relative viability |
| --- | --- |
| CC1(C)CCC(c2ccc(Cl)cc2)=C(CN2CCN(c3ccc(C(=O)NS(=O)(=O)c4ccc(N[C@H](CCN5CCOCC5)CSc5ccccc5)c(S(=O)(=O)C(F)(F)F)c4)cc3)CC2)C1 [Navitoclax] + N=C(N)NC(=N)NCCc1ccccc1 [Phenformin] (partner 250 µM) | 0.341 |
| CC1(C)CCC(c2ccc(Cl)cc2)=C(CN2CCN(c3ccc(C(=O)NS(=O)(=O)c4ccc(N[C@H](CCN5CCOCC5)CSc5ccccc5)c(S(=O)(=O)C(F)(F)F)c4)cc3)CC2)C1 [Navitoclax] + O=C(c1cc(Cc2n[nH]c(=O)c3ccccc23)ccc1F)N1CCN(C(=O)C2CC2)CC1 [Olaparib] (partner 8 µM) | 0.535 |

Turning now to a further record.
State its relative viability for this molecule: CC1(C)CCC(c2ccc(Cl)cc2)=C(CN2CCN(c3ccc(C(=O)NS(=O)(=O)c4ccc(N[C@H](CCN5CCOCC5)CSc5ccccc5)c(S(=O)(=O)C(F)(F)F)c4)cc3)CC2)C1 [Navitoclax] + CS(=O)(=O)N1CCN(Cc2cc3nc(-c4cccc5[nH]ncc45)nc(N4CCOCC4)c3s2)CC1 [Pictilisib] (partner 1 µM)
0.465

* * *

The following compounds are shown together with reported relative viability values.
system: NCI-H596; assay: relative viability (nuclei count vs DMSO), 5 days (fraction); higher = more cells survive; settings: first compound 0.08 µM
Kindly provide the number alone.

| COMPOUND | relative viability |
| --- | --- |
| C=C1C(=O)O[C@@H](CCCCCCCC)[C@@H]1C(=O)O [C-75] + CC(C)C[C@H](NC(=O)[C@H](Cc1ccccc1)NC(=O)c1cnccn1)B(O)O [Bortezomib] (partner 0.002 µM) | 1.18 |
| Oc1nc(-c2ccc(C(F)(F)F)cc2)nc2c1CSCC2 [XAV939] + O=C(CCCCCCC(=O)Nc1ccccc1)NO [Vorinostat] (partner 1 µM) | 0.642 |

State its relative viability for this compound: C=C1C(=O)O[C@@H](CCCCCCCC)[C@@H]1C(=O)O [C-75] + Cc1cc(Nc2cc(N3CCN(C)CC3)nc(Sc3ccc(NC(=O)C4CC4)cc3)n2)n[nH]1 [Tozasertib] (partner 0.1 µM)
0.889

* * *

The following compounds are shown together with reported relative viability values.
test system: LU99A; experiment: relative viability (nuclei count vs DMSO), 5 days (fraction); higher = more cells survive; conditions: first compound 0.08 µM

| COMPOUND | relative viability |
| --- | --- |
| Oc1nc(-c2ccc(C(F)(F)F)cc2)nc2c1CSCC2 [XAV939] + Cc1cc(Nc2cc(N3CCN(C)CC3)nc(Sc3ccc(NC(=O)C4CC4)cc3)n2)n[nH]1 [Tozasertib] (partner 0.1 µM) | 0.268 |
| Oc1nc(-c2ccc(C(F)(F)F)cc2)nc2c1CSCC2 [XAV939] + CS(=O)(=O)N1CCN(Cc2cc3nc(-c4cccc5[nH]ncc45)nc(N4CCOCC4)c3s2)CC1 [Pictilisib] (partner 1 µM) | 0.336 |

Turning now to a further record.
State its relative viability for this compound: Oc1nc(-c2ccc(C(F)(F)F)cc2)nc2c1CSCC2 [XAV939] + Nc1ncn([C@H]2C[C@H](O)[C@@H](CO)O2)c(=O)n1 [Decitabine] (partner 2 µM)
0.986

* * *

system: NCI-H460; assay: relative viability (nuclei count vs DMSO), 5 days (fraction); higher = more cells survive; details: first compound 0.4 µM
METRIC_NAME: relative viability
Kindly provide the number alone.

Answered examples (4):
| COMPOUND | TARGET_UNDER_TEST | MEASURED |
| --- | --- | --- |
| O=C(O)c1ccc(-c2c[nH]c3ncc(-c4ccccc4)cc23)cc1C1CCCC1 + COc1cc2c(Oc3ccc(NC(=O)C4(C(=O)Nc5ccc(F)cc5)CC4)cc3F)ccnc2cc1OCCCN1CCOCC1 [Foretinib] (partner 0.25 µM) | NCI-H460 | 0.962 |
| O=C(O)c1ccc(-c2c[nH]c3ncc(-c4ccccc4)cc23)cc1C1CCCC1 + CC1(C)CCC(c2ccc(Cl)cc2)=C(CN2CCN(c3ccc(C(=O)NS(=O)(=O)c4ccc(N[C@H](CCN5CCOCC5)CSc5ccccc5)c(S(=O)(=O)C(F)(F)F)c4)cc3)CC2)C1 [Navitoclax] (partner 0.5 µM) | NCI-H460 | 1.14 |
| O=C(O)c1ccc(-c2c[nH]c3ncc(-c4ccccc4)cc23)cc1C1CCCC1 + Nc1ncn([C@H]2C[C@H](O)[C@@H](CO)O2)c(=O)n1 [Decitabine] (partner 2 µM) | NCI-H460 | 0.468 |
| O=C(O)c1ccc(-c2c[nH]c3ncc(-c4ccccc4)cc23)cc1C1CCCC1 + CCNC(=O)c1noc(-c2cc(C(C)C)c(O)cc2O)c1-c1ccc(CN2CCOCC2)cc1 [Luminespib] (partner 0.01 µM) | NCI-H460 | 0.0398 |

State its relative viability for this compound: O=C(O)c1ccc(-c2c[nH]c3ncc(-c4ccccc4)cc23)cc1C1CCCC1 + CS(=O)(=O)N1CCN(Cc2cc3nc(-c4cccc5[nH]ncc45)nc(N4CCOCC4)c3s2)CC1 [Pictilisib] (partner 1 µM)
0.38

* * *

tested on: NCI-H2342; assay: relative viability (nuclei count vs DMSO), 5 days (fraction); higher = more cells survive; details: first compound 0.01 µM
relative viability less than 0.6 is Fulfilled; relative viability greater than or equal to 0.6 is Not fulfilled.

Recorded results for 2 compounds are shown here.
| COMPOUND | LABEL_CLASS |
| --- | --- |
| NC(=O)Nc1cc(-c2cccc(F)c2)sc1C(=O)N[C@H]1CCCNC1 [AZD7762] + Cc1cc(Nc2cc(N3CCN(C)CC3)nc(Sc3ccc(NC(=O)C4CC4)cc3)n2)n[nH]1 [Tozasertib] (partner 0.1 µM) | Fulfilled |
| NC(=O)Nc1cc(-c2cccc(F)c2)sc1C(=O)N[C@H]1CCCNC1 [AZD7762] + O=C(CCCCCCC(=O)Nc1ccccc1)NO [Vorinostat] (partner 1 µM) | Not fulfilled |

Now for a further compound.
Does the reported relative viability of the following compound sit strictly below 0.6? NC(=O)Nc1cc(-c2cccc(F)c2)sc1C(=O)N[C@H]1CCCNC1 [AZD7762] + Cc1nc(Nc2ncc(C(=O)Nc3c(C)cccc3Cl)s2)cc(N2CCN(CCO)CC2)n1 [Dasatinib] (partner 0.075 µM)
Fulfilled

* * *

test system: EKVX; assay: relative viability (nuclei count vs DMSO), 5 days (fraction); higher = more cells survive; settings: first compound 0.1 µM
METRIC_NAME: relative viability
Kindly provide the number alone.

Answered examples (2):
| COMPOUND | TARGET_UNDER_TEST | relative viability |
| --- | --- | --- |
| NC(=O)Nc1cc(-c2cccc(F)c2)sc1C(=O)N[C@H]1CCCNC1 [AZD7762] + CS(=O)(=O)CCNCc1ccc(-c2ccc3ncnc(Nc4ccc(OCc5cccc(F)c5)c(Cl)c4)c3c2)o1 [Lapatinib] (partner 2 µM) | EKVX | 0.206 |
| NC(=O)Nc1cc(-c2cccc(F)c2)sc1C(=O)N[C@H]1CCCNC1 [AZD7762] + O=C(CCCCCCC(=O)Nc1ccccc1)NO [Vorinostat] (partner 1 µM) | EKVX | 0.707 |

Turning now to a further record.
State its relative viability for this compound: NC(=O)Nc1cc(-c2cccc(F)c2)sc1C(=O)N[C@H]1CCCNC1 [AZD7762] + Cc1nc(Nc2ncc(C(=O)Nc3c(C)cccc3Cl)s2)cc(N2CCN(CCO)CC2)n1 [Dasatinib] (partner 0.075 µM)
0.337
